For UniProt P11712, measured IC50 is reported for the entries below.
Sequence (P11712 whole entry): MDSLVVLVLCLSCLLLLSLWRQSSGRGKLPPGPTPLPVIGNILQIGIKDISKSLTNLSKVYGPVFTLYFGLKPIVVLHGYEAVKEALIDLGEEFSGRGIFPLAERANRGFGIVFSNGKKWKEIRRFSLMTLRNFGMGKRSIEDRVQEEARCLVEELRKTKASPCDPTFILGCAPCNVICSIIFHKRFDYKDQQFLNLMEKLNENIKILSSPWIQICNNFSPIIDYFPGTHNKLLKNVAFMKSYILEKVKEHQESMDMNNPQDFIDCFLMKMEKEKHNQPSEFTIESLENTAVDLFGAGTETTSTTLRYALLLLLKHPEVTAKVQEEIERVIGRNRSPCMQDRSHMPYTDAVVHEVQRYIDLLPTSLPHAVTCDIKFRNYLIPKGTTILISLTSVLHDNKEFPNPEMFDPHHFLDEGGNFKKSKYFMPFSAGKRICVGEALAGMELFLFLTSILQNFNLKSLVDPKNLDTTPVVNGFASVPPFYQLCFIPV

Before answering, review these 2 worked examples.
# compound, IC50
data = [
    ("CN1CCN(c2ccc3nc(N)n(CC(O)c4ccc(C(F)(F)F)cc4Cl)c3n2)CC1 (racemic)", "> 30 µM"),
    ("Nc1nc2cccnc2n1CC(O)c1cccc(Cl)c1Cl (racemic)", "> 30 µM"),
]

Note: attention shifts to another entry.
Nc1nc2ccc(OC3CCOC3)nc2n1CC(O)c1ccc(C(F)(F)F)cc1Cl (racemic) yielded IC50 of > 30 µM

###

# System: Plasmodium falciparum
# measurement.description: microbe, parasite or virus in culture
# details: NF54, 72 h
pIC50: −log10 of the molar value.
Decision: pIC50 >= 7 yields Satisfied, all other cases yield Not satisfied.

The examples below pair each entry with its known result.
# compound, class.name
records = [
    ("Nc1nc2cnccc2n1CC(O)c1ccc(Cl)cc1Cl (racemic)", "Not satisfied"),
    ("Nc1nnnn1CC(O)c1c(Cl)cccc1Cl (racemic)", "Not satisfied"),
    ("Nc1nc2ccc(C(=O)NC3CC3)nc2n1CC(O)c1ccc(Cl)cc1Cl (racemic)", "Not satisfied"),
    ("NC1=Nc2ccccc2CN1CC(O)c1ccc(Cl)cc1Cl (racemic)", "Not satisfied"),
    ("Cc1cn(CC(O)c2ccc(Cl)cc2Cl)c(N)n1 (racemic)", "Not satisfied"),
]

query: Decide: is the reported value of pIC50 for Nc1nc2ccc(OC3CNC3)nc2n1CC(O)c1ccc(C(F)(F)F)cc1Cl (racemic) equal to or greater than 7?
result: Not satisfied

query: Does the reported pIC50 for Nc1nc2ccc(C(F)(F)F)cc2n1CC(O)c1ccc(C(F)(F)F)cc1Cl (racemic) fall at or above the 7 mark?
result: Satisfied

query: Hi team, for Nc1nc2ccc(Cl)cc2n1CC(O)c1cccc(Cl)c1Cl (racemic) , is the recorded pIC50 at or above 7?
result: Not satisfied

query: Entry Nc1nccn1CC(O)c1cccc(Cl)c1Cl (racemic) : is its pIC50 no less than 7?
result: Not satisfied

query: Is pIC50 for Nc1nc2ccc(OCC(F)(F)F)nc2n1CC(O)c1ccc(C(F)(F)F)cc1Cl (racemic) at or above 7?
result: Satisfied
